molecular target: recombinant Wee1 protein (Homo sapiens (Human)); experiment: Wee1 enzymatic activity inhibition, ADP-Glo luminescence assay; conditions: recombinant Wee1, PolyE4Y1 substrate, 1 h room temperature
Sequence (P30291 whole entry): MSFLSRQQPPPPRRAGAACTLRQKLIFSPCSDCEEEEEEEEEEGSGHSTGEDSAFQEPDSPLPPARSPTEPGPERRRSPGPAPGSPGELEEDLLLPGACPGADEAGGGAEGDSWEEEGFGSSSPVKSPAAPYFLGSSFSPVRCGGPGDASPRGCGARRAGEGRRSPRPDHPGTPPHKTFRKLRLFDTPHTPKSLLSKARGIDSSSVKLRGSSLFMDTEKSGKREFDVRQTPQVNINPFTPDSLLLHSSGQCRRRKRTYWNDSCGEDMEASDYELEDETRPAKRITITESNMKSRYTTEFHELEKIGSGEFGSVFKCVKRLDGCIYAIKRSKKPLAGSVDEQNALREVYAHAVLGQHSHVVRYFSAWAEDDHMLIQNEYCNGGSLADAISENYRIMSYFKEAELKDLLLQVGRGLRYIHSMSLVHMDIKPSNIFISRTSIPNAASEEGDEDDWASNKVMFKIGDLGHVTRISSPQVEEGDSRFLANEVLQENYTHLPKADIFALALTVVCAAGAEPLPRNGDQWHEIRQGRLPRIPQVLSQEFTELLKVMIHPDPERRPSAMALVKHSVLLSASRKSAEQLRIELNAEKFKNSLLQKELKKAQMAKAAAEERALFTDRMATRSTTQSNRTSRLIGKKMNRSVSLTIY
assay endpoint: EC50

Look over these answered cases.
COCCn1c(=O)c2cnc(Nc3ccc(N4CCN(C(=O)c5cc(Cc6n[nH]c(=O)c7ccccc67)ccc5F)CC4)cc3)nc2n1-c1ccccn1 :: 10 to 100 nM
Cn1c(=O)c2cnc(Nc3ccc(N4CCC(c5nc6cccc(C(N)=O)c6[nH]5)CC4)cc3)nc2n1-c1ccccn1 :: 10 to 100 nM
Cn1c(=O)c2cnc(Nc3ccc(N4CCC(n5cc6cccc(C(N)=O)c6n5)CC4)cc3)nc2n1-c1ccccn1 :: 10 to 100 nM
Cn1c(=O)c2cnc(Nc3ccc(N4CCN(C(=O)c5cc(Cn6c(=O)[nH]c(=O)c7c(F)cccc76)ccc5F)CC4)cc3)nc2n1-c1ncccn1 :: 100 to 1000 nM
Cn1c2nc(Nc3ccc(N4CCC(n5cc6cccc(C(N)=O)c6n5)CC4)cc3)ncc2c(=O)n1-c1ccccn1 :: 100 to 1000 nM
C=CCn1c(=O)c2cnc(N3CCN(Cc4ccc(-c5[nH]c6cc(F)cc7c6c5CCNC7=O)cc4)CC3)nc2n1-c1cccc(C(C)(C)O)n1 :: ≥ 1 nM

In the following, a different compound is considered.
Problem: Entry `Cn1c(=O)c2cnc(Nc3ccc(N4CCN(C(=O)c5cc(Cc6n[nH]c(=O)c7ccccc67)ccc5F)CC4)cc3)nc2n1-c1ccccn1` : reported EC50 = ?
Solution: 100 to 1000 nM
